Tested on: SW-620 colon
Assay: NCI-60 one-dose screen, 48 h (100 = growth as untreated, 0 = no growth, -100 = all killed)
Settings: 10 µM unless noted
Compounds without any hit were thinned out: in the full panel of roughly 83,000, 20% have a hit.
This listing pairs molecules with measured growth.

>  <molecule>
CC(CCC#N)(CCC#N)C(=O)c1ccccc1

>  <growth [%]>
103

$$$$
>  <molecule>
CC1(C)OC2C(CO)OC(n3ccc(=O)[nH]c3=O)C2O1 (centres undefined)

>  <growth [%]>
96.3

$$$$
>  <molecule>
C1Cc2onc(-c3noc4c3CCC4)c2C1

>  <growth [%]>
123

$$$$
>  <molecule>
O=C(O)Cc1ccc(Cl)cc1

>  <growth [%]>
111

$$$$
>  <molecule>
O=C(OCc1ccccc1)n1nnc2ccccc21

>  <growth [%]>
107

$$$$
>  <molecule>
C=COC(=O)C(C)(C)C

>  <growth [%]>
98.4

$$$$
>  <molecule>
CCCCCCCCCCCCSC1=C(Cl)C(=O)C(OC)=C(OC)C1=O

>  <growth [%]>
27.5

$$$$
>  <molecule>
CCCCCCCCNC(=O)C(C)C

>  <growth [%]>
93.4

$$$$
>  <molecule>
CC(=O)OC(C)c1cccc(C#N)c1 (centres undefined)

>  <growth [%]>
98.2

$$$$
>  <molecule>
CS(=O)CC(=N\O)/C(CS(C)=O)=N\O (centres undefined)

>  <growth [%]>
101

$$$$
>  <molecule>
Cc1ccc(NC(=S)N2CCOCC2)cc1C

>  <growth [%]>
109

$$$$
>  <molecule>
CC(=O)OC/C(C)=C\CC(C)COC(C)=O (centres undefined)

>  <growth [%]>
97.6

$$$$
>  <molecule>
Nc1cc(F)ccc1[N+](=O)[O-]

>  <growth [%]>
104

$$$$
>  <molecule>
CC(=O)NNC(=S)/N=C\C(C(=O)c1ccccc1)=C(/O)c1ccccc1

>  <growth [%]>
110

$$$$
